Listed here: items and their measured IC50.
# Target desc: CutC from Proteus mirabilis (Proteus mirabilis, UniProt B4EYG1)
# Sequence (B4EYG1 entry or part of it): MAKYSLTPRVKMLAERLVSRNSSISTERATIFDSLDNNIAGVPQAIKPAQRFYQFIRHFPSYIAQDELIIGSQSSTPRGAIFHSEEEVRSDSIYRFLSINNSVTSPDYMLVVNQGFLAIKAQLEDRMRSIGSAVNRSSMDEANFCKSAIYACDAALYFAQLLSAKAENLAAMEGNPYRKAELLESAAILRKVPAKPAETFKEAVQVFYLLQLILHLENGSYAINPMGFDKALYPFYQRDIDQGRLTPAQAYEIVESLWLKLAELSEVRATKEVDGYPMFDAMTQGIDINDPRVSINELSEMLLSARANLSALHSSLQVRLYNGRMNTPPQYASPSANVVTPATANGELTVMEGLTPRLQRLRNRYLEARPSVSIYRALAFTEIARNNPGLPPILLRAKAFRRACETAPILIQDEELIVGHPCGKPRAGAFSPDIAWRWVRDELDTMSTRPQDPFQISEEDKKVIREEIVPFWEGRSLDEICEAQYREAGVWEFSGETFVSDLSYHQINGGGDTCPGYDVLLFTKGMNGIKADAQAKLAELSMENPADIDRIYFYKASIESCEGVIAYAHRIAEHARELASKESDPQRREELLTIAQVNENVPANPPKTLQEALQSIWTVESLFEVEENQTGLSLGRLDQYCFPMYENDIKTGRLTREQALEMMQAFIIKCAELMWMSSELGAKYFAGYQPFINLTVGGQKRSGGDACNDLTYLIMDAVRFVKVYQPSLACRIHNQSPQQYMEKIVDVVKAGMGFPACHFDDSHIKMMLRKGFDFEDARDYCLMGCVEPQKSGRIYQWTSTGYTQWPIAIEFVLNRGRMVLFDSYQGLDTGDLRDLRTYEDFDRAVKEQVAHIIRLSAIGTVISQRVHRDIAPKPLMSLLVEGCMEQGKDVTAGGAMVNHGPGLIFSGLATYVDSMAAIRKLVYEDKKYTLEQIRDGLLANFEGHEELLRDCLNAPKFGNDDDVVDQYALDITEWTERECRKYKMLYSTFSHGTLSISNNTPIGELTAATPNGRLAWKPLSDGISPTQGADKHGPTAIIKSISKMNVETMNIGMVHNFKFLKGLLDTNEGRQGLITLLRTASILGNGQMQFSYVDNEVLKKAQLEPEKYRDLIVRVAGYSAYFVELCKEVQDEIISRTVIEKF
# Sequence (B4EYG0 entry or part of it, further chain): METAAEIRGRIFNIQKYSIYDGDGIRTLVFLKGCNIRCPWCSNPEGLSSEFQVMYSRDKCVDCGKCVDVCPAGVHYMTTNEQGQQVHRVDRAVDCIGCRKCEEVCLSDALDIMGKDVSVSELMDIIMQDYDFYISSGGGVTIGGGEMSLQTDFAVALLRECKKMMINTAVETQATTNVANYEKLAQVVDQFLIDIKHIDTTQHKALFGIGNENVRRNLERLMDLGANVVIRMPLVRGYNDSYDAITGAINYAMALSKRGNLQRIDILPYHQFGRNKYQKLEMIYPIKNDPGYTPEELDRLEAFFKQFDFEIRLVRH
# Assay name: Cell-based assay for TMA production from a native producer (P. mirabilis)
# Run conditions: d9-TMA from 1 mM d9-choline, 5 h, 37° C.; value 10 given when no fit or % TMA remaining at 10 μM higher than 15%; read-out: Average IC50 Whole cell P. mirabilis

Can you look up the measured IC50 of C#CC[N+]1(CC(=O)O)CCCCC1 [Compound 160] for me? ≥ 10 µM

Can you look up the measured IC50 of C#CC[N+]1(CC#C)CCCC1 [Compound 188] for me? > 10 µM

Can you look up the measured IC50 of C[N+](C)(CCO)CCO [Compound 157] for me? ≥ 10 µM

* * *

# Target desc: UniProt B4EYG1
# Assay name: Cell-based assay for TMA production from a native producer (P. mirabilis)
# Run conditions: d9-TMA from 1 mM d9-choline, 5 h, 37° C.; value 10 given when no fit or % TMA remaining at 10 μM higher than 15%; read-out: Average IC50 Whole cell P. mirabilis
Listed here: items and their measured IC50.
Number only, in nM; omit the unit.

C#CC[N+](C)(C)CC#N [Compound 168]	870

Can you look up the measured IC50 of C#CC[N+](C)(C)CCOCCO [Compound 191] for me? 2170

Can you look up the measured IC50 of CCC[N+](C)(CF)CCO (stereo not shown) [Compound 225] for me? 629
